Exercise: state measured Cmax for each of the compounds provided.
Assay: Plasma PK of baxdrostat and baxdrostat-M in the metformin crossover study (Example 6A)
Format: in vivo, human
Details: human, single 10-mg dose of baxdrostat, read-out: Cmax, GM
Give bare numbers, in ng/mL.

>>> print(df.to_string())
                                   compound  experimental_endpoint  unit_spec  measured_number
0  CCC(=O)N[C@@H]1CCCc2c(-c3ccc4c(c3)CCC(=O)N4C)cncc21                   Cmax      ng/mL              117

Alright, here's another compound for you.
Lab book: Cmax of CN1C(=O)CCc2cc(-c3cncc4c3CCCC4O)ccc21 (centres unmarked) noted as 6.16

###

Assay: clinical
Settings: human, in vivo, Tmax (plasma), GM (CV %)
Experimental Endpoint: Tmax

Field Tmax (entry CN(C)C(=N)N=C(N)N ) reads 1.92 h

###

Test: Relative bioavailability tablet vs oral solution and food effect (Example 3)
Format: in vivo, human
Conditions: human, plasma, oral, 5 mg, fed state (high-fat meal)
Experimental Endpoint: Tmax

The value of Tmax measured for the molecule CCC(=O)N[C@@H]1CCCc2c(-c3ccc4c(c3)CCC(=O)N4C)cncc21 turned out to be ~4 h

###

Experiment: Pharmacokinetics in subjects with varying degrees of renal function (Example 4)
Format: in vivo, human
Details: human, plasma, oral, 10 mg, kidney failure eGFR <15 mL/min; single 10 mg; read-out: AUC0-inf, mean (SD)
Experimental Endpoint: AUC(0-inf)
Please make sure the unit comes right after the number.

The measured AUC(0-inf) associated with CCC(=O)N[C@@H]1CCCc2c(-c3ccc4c(c3)CCC(=O)N4C)cncc21 reads 2660 ng·h/mL

###

Experiment: Pharmacokinetics in subjects with varying degrees of renal function (Example 4)
Assay type: in vivo, human
Conditions: human, plasma, oral, 10 mg, moderate to severe renal impairment eGFR 15-59 mL/min; single 10 mg; read-out: AUC0-last, mean (SD)
Experimental Endpoint: AUC(0-t) (ng·h/mL)
Numbers only, in ng·h/mL.

Looking up CCC(=O)N[C@@H]1CCCc2c(-c3ccc4c(c3)CCC(=O)N4C)cncc21 , I found its AUC(0-t) recorded as 4010

###

Test: Pharmacokinetics in subjects with varying degrees of renal function (Example 4)
Format: in vivo, human
Details: human, plasma, oral, 10 mg, control eGFR ≥60 mL/min; single 10 mg; read-out: t1/2, mean (SD) (converted)
Experimental Endpoint: half-life (h)
Numbers only, in h.

Just so you know, measured half-life for CCC(=O)N[C@@H]1CCCc2c(-c3ccc4c(c3)CCC(=O)N4C)cncc21 came out at 35.6

###

Assay: clinical
Settings: human, in vivo, Tmax (plasma), Mean (SD)
Experimental Endpoint: Tmax (h)
Give bare numbers, in h.

Record summary for CN(C)C(=N)N=C(N)N [Metformin, metformin] : reported Tmax = 2.04

###

Test: Pharmacokinetics in subjects with varying degrees of renal function (Example 4)
Type: in vivo, human
Details: human, plasma, oral, 10 mg, kidney failure eGFR <15 mL/min; single 10 mg; read-out: Cmax, mean (SD)
Experimental Endpoint: Cmax (µg/mL)
Answers are plain numbers, in µg/mL.

Note to self: Cmax recorded for CCC(=O)N[C@@H]1CCCc2c(-c3ccc4c(c3)CCC(=O)N4C)cncc21 was 0.096

###

Test: Pharmacokinetics in subjects with varying degrees of renal function (Example 4)
Assay type: in vivo, human
Settings: human, plasma, oral, 10 mg, across renal function groups; read-out: average half-life
From the text: This phase 1, open-label, single-dose, parallel-group study was designed in accordance with the FDA guidance for the design and analysis of studies that assess the influence of impaired renal function on PK. Subjects were enrolled into three renal function groups defined based on eGFR calculated using the Chronic Kidney Disease Epidemiology Collaboration equation as follows: […]
Experimental Endpoint: half-life

Given item CCC(=O)N[C@@H]1CCCc2c(-c3ccc4c(c3)CCC(=O)N4C)cncc21 , the value recorded as its half-life is 30 to 42 h

###

Assay: Pharmacokinetics in subjects with varying degrees of renal function (Example 4)
Format: in vivo, human
Details: human, plasma, oral, 10 mg, control eGFR ≥60 mL/min; single 10 mg; read-out: Cmax, mean (SD)
Experimental Endpoint: Cmax (ng/mL)
One number for each entry, in ng/mL.

Form: molecule = CCC(=O)N[C@@H]1CCCc2c(-c3ccc4c(c3)CCC(=O)N4C)cncc21 [baxdrostat] ; Cmax = 108

###

Assay: Pharmacokinetics in subjects with moderate hepatic impairment vs normal hepatic function (Example 5)
Format: in vivo, human
Settings: human, plasma, oral, 10 mg, normal hepatic function; single 10 mg; read-out: Tmax, arithmetic mean (SD)
Experimental: Subjects with moderate hepatic impairment (Child-Pugh Category B, n=10) and healthy controls (n=10) were each given a single 10 mg oral dose of baxdrostat. Subjects were matched by age, sex, body mass index, race, and smoking status. Serial blood and urine samples were collected to determine plasma and urine concentrations of baxdrostat for 7 days postdose. Safety was assessed based on adverse events, clinical laboratory evaluations, vital signs, electrocardiogram and physical examinations.
Experimental Endpoint: Tmax (h)
Numbers only, in h.

response.value for CCC(=O)N[C@@H]1CCCc2c(-c3ccc4c(c3)CCC(=O)N4C)cncc21 (field: Tmax) = 2.55

###

Experiment: Pharmacokinetics in subjects with varying degrees of renal function (Example 4)
Format: in vivo, human
Conditions: human, plasma, oral, 10 mg, kidney failure eGFR <15 mL/min; single 10 mg; read-out: Vz/F, mean (SD)
Experimental Endpoint: Vd/F (L)
Give bare numbers, in L.

Note to self: Vd/F recorded for CCC(=O)N[C@@H]1CCCc2c(-c3ccc4c(c3)CCC(=O)N4C)cncc21 was 200

###

Experiment: Plasma PK of baxdrostat and baxdrostat-M in the metformin crossover study (Example 6A)
Assay type: in vivo, human
Conditions: human, single 10-mg dose of baxdrostat
Experimental Endpoint: AUC% extrapolated (%)
One number for each entry, in %.

The recorded AUC% extrapolated for CCC(=O)N[C@@H]1CCCc2c(-c3ccc4c(c3)CCC(=O)N4C)cncc21 [baxdrostat] is 8.36

###

Assay: Plasma PK of baxdrostat and baxdrostat-M in the metformin crossover study (Example 6A)
Type: in vivo, human
Conditions: human, single 10-mg dose of baxdrostat, read-out: AUC0-inf, Mean
Experimental Endpoint: AUC(0-inf) (µg·h/mL)
Numbers only, in µg·h/mL.

Reported AUC(0-inf) for CCC(=O)N[C@@H]1CCCc2c(-c3ccc4c(c3)CCC(=O)N4C)cncc21 was 3.03

###

Assay: Plasma PK of baxdrostat and baxdrostat-M in the metformin crossover study (Example 6A)
Assay type: in vivo, human
Details: human, single 10-mg dose of baxdrostat, read-out: AUC0-72, GM
Experimental: This study was designed as a phase 1, randomized, open-label, 2-period, crossover trial. Each subject participated in a screening period of up to 26 days followed by 2 inpatient treatment periods and a follow-up phone call. […] PK parameters were calculated using noncompartmental methods with SAS software, version 9.4 (SAS Institute). […] Plasma AUC0-72 was assessed only for baxdrostat and baxdrostat-M. […]
Experimental Endpoint: AUC(0-t) (ng·h/mL)
One number for each entry, in ng·h/mL.

>>> df
                                   compound  experimental_endpoint  unit_spec  measured_number
0  CCC(=O)N[C@@H]1CCCc2c(-c3ccc4c(c3)CCC(=O)N4C)cncc21               AUC(0-t)    ng·h/mL             2790

Attention now turns to another entry.
Data point: CN1C(=O)CCc2cc(-c3cncc4c3CCCC4O)ccc21 (centres unmarked) ; AUC(0-t) = 248

###

Test: Plasma PK of baxdrostat and baxdrostat-M in the metformin crossover study (Example 6A)
Type: in vivo, human
Conditions: human, single 10-mg dose of baxdrostat, read-out: Cmax, Mean
Description: This study was designed as a phase 1, randomized, open-label, 2-period, crossover trial. Each subject participated in a screening period of up to 26 days followed by 2 inpatient treatment periods and a follow-up phone call. […] PK parameters were calculated using noncompartmental methods with SAS software, version 9.4 (SAS Institute). […] Plasma AUC0-72 was assessed only for baxdrostat and baxdrostat-M. […]
Experimental Endpoint: Cmax (ng/mL)
Give bare numbers, in ng/mL.

In [3]: df
Out[3]:
                                   compound  experimental_endpoint  unit_spec  measured_number
0  CN1C(=O)CCc2cc(-c3cncc4c3CCCC4O)ccc21 (centres unmarked) [baxdrostat-M]                   Cmax      ng/mL             6.72

Turning now to a further compound:
GET /value?item= CCC(=O)N[C@@H]1CCCc2c(-c3ccc4c(c3)CCC(=O)N4C)cncc21 [baxdrostat] &field=Cmax returns 119

###

Experiment: Pharmacokinetics in subjects with varying degrees of renal function (Example 4)
Assay type: in vivo, human
Settings: human, plasma, oral, 10 mg, control eGFR ≥60 mL/min; single 10 mg; read-out: AUC0-inf, mean (SD)
Description: This phase 1, open-label, single-dose, parallel-group study was designed in accordance with the FDA guidance for the design and analysis of studies that assess the influence of impaired renal function on PK. Subjects were enrolled into three renal function groups defined based on eGFR calculated using the Chronic Kidney Disease Epidemiology Collaboration equation as follows: […]
Experimental Endpoint: AUC(0-inf) (ng·h/mL)
Answers are plain numbers, in ng·h/mL.

Recorded AUC(0-inf) (compound CCC(=O)N[C@@H]1CCCc2c(-c3ccc4c(c3)CCC(=O)N4C)cncc21 [baxdrostat] ): 3530
